- test-description: gradient 5% acetonitrile 3 min, to 50% in 2 min, to 85% in 15 min, held 3 min, 100 µL/min
- conditions-used: column: Zorbax Extend-C18 2.1 x 50 mm; eluents: water / acetonitrile, 0.1% formic acid
// RP-LC retention time lookup, one value per entry
readout-label: RP-LC retention time (s)

>  <molecule>
COCCN(C)C(=O)c1cn(C2CN(S(=O)(=O)c3cn(C)cn3)C2)nn1

>  <unit-label>
s

>  <reading>
585

$$$$
>  <molecule>
Cc1ccc(-c2noc(C3CC(=O)N(c4ccc5c(c4)OCCO5)C3)n2)cc1 (stereo not drawn)

>  <unit-label>
s

>  <reading>
943

$$$$
>  <molecule>
CCCC(=O)Nc1ccc(S(=O)(=O)NCC(C)(O)COC)cc1 (stereo not drawn)

>  <unit-label>
s

>  <reading>
619

$$$$
>  <molecule>
Cc1cc(OCC(=O)N[C@H](C(=O)O)C(C)C)c2c3c(c(=O)oc2c1)CCC3

>  <unit-label>
s

>  <reading>
788

$$$$
>  <molecule>
Cc1cccc(-c2nc(Cn3nnc(-c4nc(-c5ccc(F)cc5)no4)c3C)c(C)o2)c1

>  <unit-label>
s

>  <reading>
1300

$$$$
>  <molecule>
CCCNC(=O)C1CCN(c2ccc(SCC(=O)Nc3ccc(Cl)cc3F)nn2)CC1

>  <unit-label>
s

>  <reading>
688

$$$$
>  <molecule>
COc1ccc(N2CC(c3nc(-c4ccc(Br)cc4)no3)CC2=O)cc1 (stereo not drawn)

>  <unit-label>
s

>  <reading>
1050

$$$$
>  <molecule>
O=C(Nc1cccc(F)c1)C1CC(=O)N(CCc2c[nH]c3ccc(Cl)cc23)C1 (stereo not drawn)

>  <unit-label>
s

>  <reading>
844

$$$$
>  <molecule>
CCn1nccc1C(=O)N1CC(Oc2ccc(-c3nc(-c4ccccc4)no3)cc2)C1

>  <unit-label>
s

>  <reading>
1120

$$$$
>  <molecule>
CC(C)c1ccc(N2C(=O)C3N=NN(Cc4nc(-c5cccc(Br)c5)no4)C3C2=O)cc1 (stereo not drawn)

>  <unit-label>
s

>  <reading>
1170

$$$$
>  <molecule>
CCN1C(=O)c2ccccc2Oc2ccc(C(=O)NCc3ccco3)cc21

>  <unit-label>
s

>  <reading>
843

$$$$
>  <molecule>
Cc1ccc2c(c1)C(=O)NC1(CCN(C(=O)Cc3ccc(Cl)cc3)CC1)N2C

>  <unit-label>
s

>  <reading>
850

$$$$
>  <molecule>
COc1cc(Nc2nc(-c3nnn(-c4ccc(F)cc4)c3C)ns2)cc(OC)c1

>  <unit-label>
s

>  <reading>
990

$$$$
>  <molecule>
CCc1noc(-c2cnc3nc(C)ccc3c2Nc2cccc(OC)c2)n1

>  <unit-label>
s

>  <reading>
778

$$$$
>  <molecule>
Cc1nn(C)c(=O)c2cc(S(=O)(=O)N3CCC(Cc4ccccc4)CC3)cn12

>  <unit-label>
s

>  <reading>
943

$$$$
>  <molecule>
O=C(Cc1ccc(Cl)cc1)N1CCN(S(=O)(=O)c2cc3c4c(c2)CCC(=O)N4CCC3)CC1

>  <unit-label>
s

>  <reading>
842

$$$$
>  <molecule>
CCN1C(=O)Cc2ccccc2C1C(=O)NCc1ccccc1Br (stereo not drawn)

>  <unit-label>
s

>  <reading>
780

$$$$
>  <molecule>
c1ccc(-c2nc3ccccc3nc2N2CCOCC2)cc1

>  <unit-label>
s

>  <reading>
995

$$$$
